I'd be grateful if you could share measured IC50 for these entries.
# Target or test system: human DPP-IV (Homo sapiens)
# Sequence (P27487 39-766): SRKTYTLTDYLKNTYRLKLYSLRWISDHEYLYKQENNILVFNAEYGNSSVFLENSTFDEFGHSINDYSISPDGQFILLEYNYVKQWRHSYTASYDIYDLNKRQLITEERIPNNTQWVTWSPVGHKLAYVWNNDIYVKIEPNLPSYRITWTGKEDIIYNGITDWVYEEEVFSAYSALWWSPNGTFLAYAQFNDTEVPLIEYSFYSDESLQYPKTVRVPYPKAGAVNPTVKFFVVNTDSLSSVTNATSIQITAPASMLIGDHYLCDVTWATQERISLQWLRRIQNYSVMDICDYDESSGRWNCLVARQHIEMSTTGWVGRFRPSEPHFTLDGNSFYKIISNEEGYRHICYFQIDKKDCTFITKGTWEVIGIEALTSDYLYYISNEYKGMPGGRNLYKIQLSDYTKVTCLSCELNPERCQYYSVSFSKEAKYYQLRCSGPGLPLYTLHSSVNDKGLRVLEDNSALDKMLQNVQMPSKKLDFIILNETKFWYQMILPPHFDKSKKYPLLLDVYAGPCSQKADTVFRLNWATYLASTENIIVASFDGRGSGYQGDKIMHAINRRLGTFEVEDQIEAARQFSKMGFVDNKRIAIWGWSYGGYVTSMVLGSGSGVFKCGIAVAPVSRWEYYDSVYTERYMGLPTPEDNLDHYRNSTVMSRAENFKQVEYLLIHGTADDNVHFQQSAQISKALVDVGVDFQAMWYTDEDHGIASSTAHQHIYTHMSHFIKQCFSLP
Numbers only, in nM.

{"Molecule": "Cn1ccc2cc(C(=O)N[C@H]3CC[C@](CN)(c4cccc(Cl)c4)CC3)ccc21", "Readout units": "nM", "IC50": 50}
{"Molecule": "CC1CC(=O)N([C@]2(CN)CC[C@@H](N3CCn4c(nnc4C(F)(F)F)C3)CC2)C1 (stereo partly drawn)", "Readout units": "nM", "IC50": 850}

For every item in the list below, what is its measured IC50?
1. NCC1(c2cccc(Cl)c2)CCC(Oc2ccc(Br)cn2)CC1 (stereo not drawn)
2. CS(=O)(=O)c1ccc(CN[C@H]2CC[C@](CN)(c3cccc(Cl)c3)CC2)cc1
3. Cc1n[nH]c(C)c1CCn1cc(-c2ccc(=O)n([C@H]3CC[C@](CN)(c4cccc(Cl)c4)CC3)n2)nn1
4. CCOC(=O)N1CCC(N2CC(=O)N([C@H]3CC[C@](CN)(c4cccc(Cl)c4)CC3)CC2=O)CC1

1. 200
2. 400
3. 850
4. 100
